Test Description: Excitation and fluorescence emission wavelength measurement
Format: physicochemical
Set-up: unit not given here
Run Conditions: aqueous solution: 10 mg/mL solution in DMSO diluted 500-fold with purified water
We use 100 as the dividing line for Stokes shift (λem − λex): on or above the line is t, below is f.

Reference set (2 entries):
INSERT INTO measurements (molecule, label_class) VALUES
  ('CSc1cccc(N2c3ccc(/C=C4/SC(=S)N(CC(=O)O)C4=O)cc3C3CCCC32)c1 (stereo not shown) [Dye 115]', 't'),
  ('CCN1C(=O)/C(=c2\s/c(=C/c3ccc4c(c3)C3CCCC3N4c3ccc(OC)cc3)c(=O)n2CC)SC1=S (stereo not shown) [Dye 68]', 'f');

Lookup: Threshold query (Stokes shift (λem − λex) >= 100) on COc1ccc2cc(N3c4ccc(/C=C(\C#N)C(=O)O)cc4C4CCCC43)ccc2c1 (stereo not shown) [Dye 6]
Found: t

Lookup: Threshold query (Stokes shift (λem − λex) >= 100) on CCN1c2ccc(/C=C3/SC(=S)N(CC(=O)O)C3=O)cc2C2CCCC21 (stereo not shown) [Dye 109]
Found: t

---

Test Description: Excitation and fluorescence emission wavelength measurement
Type: physicochemical
Set-up: unit not given here
Run Conditions: aqueous solution: 10 mg/mL solution in DMSO diluted 500-fold with purified water
Observed Property: Stokes shift (λem − λex)
The response must contain the number and no unit.

Consider the following illustrative entries.
INSERT INTO measurements (compound, recorded_result) VALUES
  ('O=C1/C(=C/c2ccc3c(c2)C2CCCC2N3c2ccccc2)Oc2ccc(I)cc21 (stereo not shown)', 110),
  ('O=C(O)Cn1c(=O)/c(=C\c2ccc3c(c2)C2CCCC2N3Cc2ccccc2)s/c1=C1/SC(=S)N(Cc2ccccc2)C1=O (stereo not shown)', 80),
  ('CCN1C(=O)/C(=c2\s/c(=C/c3ccc4c(c3)C3CCCC3N4Cc3ccccc3)c(=O)n2CC(=O)O)SC1=S (stereo not shown)', 81);

GET /value?item= N#C/C(=C\c1ccc2c(c1)C1CCCC1N2c1ccc(C=C(c2ccccc2)c2ccccc2)cc1)C(=O)O (stereo not shown) [Dye 7] &field=Stokes shift (λem − λex) returns 103

GET /value?item= CCn1c(=O)/c(=C\c2ccc3c(c2)C2CCCC2N3c2ccccc2)s/c1=C1/SC(=S)N(CC(=O)O)C1=O (stereo not shown) &field=Stokes shift (λem − λex) returns 110

GET /value?item= N#C/C(=C\c1cc(Br)c2c(c1)C1CCCC1N2Cc1cccc(Br)c1)C(=O)O (stereo not shown) &field=Stokes shift (λem − λex) returns 160

GET /value?item= CCN1C(=O)/C(=c2\s/c(=C/c3ccc4c(c3)C3CCCC3N4c3ccc(OC)cc3)c(=O)n2CC(=O)O)SC1=S (stereo not shown) &field=Stokes shift (λem − λex) returns 97

---

This listing pairs compounds with measured Excitation wavelength λex.
Test Description: Excitation and fluorescence emission wavelength measurement
Type: physicochemical
Run Conditions: aqueous solution: 10 mg/mL solution in DMSO diluted 500-fold with purified water
# value in nm; strip the unit string

Consider the following illustrative entries.
INSERT INTO measurements (compound, recorded_result) VALUES
  ('CCn1c(=O)/c(=C\c2ccc3c(c2)C2CCCC2N3c2ccccc2)s/c1=C1/SC(=S)N(CC(=O)O)C1=O (stereo not drawn)', 590),
  ('CSc1cccc(N2c3ccc(/C=C4/SC(=S)N(CC(=O)O)C4=O)cc3C3CCCC32)c1 (stereo not drawn)', 520),
  ('O=C(O)C1=NN(c2ccccc2)C(=O)/C1=C\c1ccc2c(c1)C1CCCC1N2c1ccc(Cc2ccccc2)cc1 (stereo not drawn)', 481),
  ('N#C/C(=C\c1ccc2c(c1)C1CCCC1N2c1ccc(C=C(c2ccccc2)c2ccccc2)cc1)C(=O)O (stereo not drawn) [Dye 7]', 498),
  ('COc1ccc2cc(N3c4ccc(/C=C(\C#N)C(=O)O)cc4C4CCCC43)ccc2c1 (stereo not drawn)', 474),
  ('O=C(O)C1=NN(c2ccccc2)C(=O)/C1=C\c1ccc2c(c1)C1CCCC1N2c1ccc(C=C(c2ccccc2)c2ccccc2)cc1 (stereo not drawn)', 582);

GET /value?item= COc1ccc(N2c3ccc(/C=C4/SC(=S)N(CC(=O)O)C4=O)cc3C3CCCC32)cc1 (stereo not drawn) &field=Excitation wavelength λex returns 571

GET /value?item= CCN1C(=O)/C(=c2\s/c(=C/c3ccc4c(c3)C3CCCC3N4c3ccc(SC)cc3)c(=O)n2CC(=O)O)SC1=S (stereo not drawn) &field=Excitation wavelength λex returns 570

GET /value?item= COc1ccc2cc(N3c4ccc(/C=C5/SC(=S)N(CCC(=O)O)C5=O)cc4C4CCCC43)ccc2c1 (stereo not drawn) &field=Excitation wavelength λex returns 533

GET /value?item= O=C(O)CN1C(=O)/C(=C\c2ccc3c(c2)C2CCCC2N3c2ccc(C=C(c3ccccc3)c3ccccc3)cc2)SC1=S (stereo not drawn) &field=Excitation wavelength λex returns 535

GET /value?item= COc1ccc(N2c3ccc(/C=C4\Oc5ccc(I)cc5C4=O)cc3C3CCCC32)cc1 (stereo not drawn) &field=Excitation wavelength λex returns 530

GET /value?item= O=C(O)C[n+]1c(/C=C/c2ccc3c(c2)C2CCCC2N3Cc2ccccc2)sc2ccccc21 (stereo not drawn) &field=Excitation wavelength λex returns 566

GET /value?item= O=C(O)Cn1c(=O)/c(=C\c2ccc3c(c2)C2CCCC2N3Cc2ccccc2)s/c1=C1/SC(=S)N(Cc2ccccc2)C1=O (stereo not drawn) &field=Excitation wavelength λex returns 588

GET /value?item= CC1(C)C(/C=C/c2ccc3c(c2)C2CCCC2N3c2ccc(C=C(c3ccccc3)c3ccccc3)cc2)=[N+](CCC(=O)O)c2ccccc21 (stereo not drawn) &field=Excitation wavelength λex returns 611

GET /value?item= COc1ccc(N2c3ccc(/C=C(/C#N)C(=O)O)cc3C3CCCC32)cc1 (stereo not drawn) &field=Excitation wavelength λex returns 440

GET /value?item= O=C(O)CCN1C(=O)/C(=C\c2cc(Br)c3c(c2)C2CCCC2N3c2ccc(Br)cc2)SC1=S (stereo not drawn) &field=Excitation wavelength λex returns 518

Every entry's value here was drawn from patent US9801960B2.
